Tested on: mammalian cells
Test: Arrayed SSAP library screening, cell viability by live cell counts via flow cytometry
Type: cell-based

{"columns": ["molecule", "Cell Viability (Average, two targets)"],
 "data": [
  ["SSAP_220: SEQ ID NO: 389; Amycolatopsis circi (protein, listed as Amycolatopsis circi) ISQTVTTAVAQQKDSSPAALVRKYRTDFATVLPSHIKPETWLRIATGALRRSPQLANAAKRNPSSLLVALLEAARKGLEPGTEQFYLVPRKGKNGPEVLGITGYQGEVELMYRAGAVSSVKVEVVREHDTFAYNPGEHDRPVHEIDWRADRGDLVLTYAYAVMRDGATSNVVVLSADDIAVILKKADGADSPFSPWQWNPKAMWLKSAARQLAKWVPTSAEYVRLPDVPLESLPPAKPLDLPRVDDVVDAEIVEDWPTAPDDTADGAR", 0.9152],
  ["SSAP_235: SEQ ID NO: 404; Streptomyces sp. adm13(2018) (protein, listed as Streptomyces sp.) SQIGNEIARQSHSPAAIIEQHKADLAVVAASHVRVDTFARLAVGVLRQNEKLAAAAANNPGSLMSALMTAARLGLEPGTEQFYLRPIKRKGQLEVQGIVGYQGIVELIYNAGAAQSVVVEVVRARDEFAWTPGALDEHRPPRWPGAMKQPHHKVDWFGDRGPLVGAYAYAVMQGGAISKVVVLNRDHIARAKAKSDGADTDYSPWRTDEEAMWLKTAARRLGKWVPTSAEKRTGVIERLDTPPAPLNEIDPDEDDEPIDGELVD", 0.8847],
  ["EcRecT: Escherichia coli RecT SSAP; SEQ ID NO: 171 (Tables 8, 9), SEQ ID NO: 9; positive control in Table 9 (protein) MTKQPPIAKADLQKTQGNRAPAAIKNNDVISFINQPSMKEQLAAALPRHMTAERMIRIATTEIRKVPALGNCDTMSFVSAIVQCSQLGLEPGSALGHAYLLPFGNKNEKSGKKNVQLIIGYRGMIDLARRSGQIASLSARVVREGDEFNFEFGLDEKLIHRPGENEDAPVTHVYAVARLKDGGTQFEVMTRKQIELVRSQSKAGNNGPWVTHWEEMAKKTAIRRLFKYLPVSIEIQRAVSMDEKEPLTIDPADSSVLTGEYSVIDNSEE", 0.8651],
  ["SSAP_262: SEQ ID NO: 431; YqaK Schleiferilactobacillus shenzhenensis LY-73 (protein, listed as Schleiferilactobacillus shenzhenensis) SAVSESKDLQHVDQLSVLNSAMTAASLNLPINQNLGFFYLVPYKGIAQAQMGYKGYIQLAQRSGQYQRLNAIPVYADEFGSWNPLTEELDYTPHFEDRKASDKPVGYVGFFKLANGFEKTVYWSRKQIEAHRDRFSKSSKSSASPWNTDFDAMALKTVLRNLITKWGPMTTDIQRANDADEGDYKNDLSTDTSEPKDVTPGASLEQFLGETDQQQKPATKPAPKKKAEEAKPNDLKPDVTHDPNEHTEQTSLSDDDLPFD", 1.122]
]}
